# assayName: Early RBV plasma exposure (AUC0-4h) after a 600 mg first dose of RBV
# Type: in vivo, human (patients with chronic hepatitis C)
# conditionSet: male, human, plasma, oral, 600 mg, male HCV monoinfected patients; single 600 mg dose; median (range); read-out: Men AUC0-4h
readoutKind: AUC(0-t) (ng·h/mL)
Please reply with the bare figure in ng·h/mL and do not write the unit itself.

Exercise: Could you please provide reported AUC(0-t) for `NC(=O)c1ncn([C@@H]2O[C@H](CO)[C@@H](O)[C@H]2O)n1` ? Thanks!
Solution: 1880

* * *

# assayName: Early RBV plasma exposure (AUC0-4h) after a 600 mg first dose of RBV
# Assay type: in vivo, human (patients with chronic hepatitis C)
# conditionSet: human, plasma, oral, 600 mg, HIV-HCV coinfected patients with CD4 < 500/mm^3; median (range); read-out: AUC0-4h
readoutKind: AUC(0-t)
Please answer using a numeric value trailed by its unit.

Exercise: Tell us which AUC(0-t) value is on record for `NC(=O)c1ncn([C@@H]2O[C@H](CO)[C@@H](O)[C@H]2O)n1`
Solution: 1270 ng·h/mL

* * *

# assayName: Early RBV plasma exposure (AUC0-4h) after a 600 mg first dose of RBV
# Format: in vivo, human (patients with chronic hepatitis C)
# conditionSet: human, plasma, oral, 600 mg, HCV monoinfected, HCV treatment naive patients; read-out: median AUC0-4h
readoutKind: AUC(0-t) (ng·h/mL)
Answer with a number only, understood to be in ng·h/mL.

Exercise: State its AUC(0-t): NC(=O)c1ncn([C@@H]2O[C@H](CO)[C@@H](O)[C@H]2O)n1 [RBV, ribavirin]
Solution: 2430
